Listing: TGI of selected compounds
System: SK-MEL-5 melanoma
Procedure details: NCI tumour cell line growth inhibition, 48 h

Use these answered entries as a reference point.
O=C(NC(CO)CO)c1ccc2cc(C(=O)N3CC(CCl)c4ccc([N+](=O)[O-])cc43)[nH]c2c1 (configuration not stated) ... > 100 µM
O=c1c2cccnc2ncn1CCCN1CCOCC1 ... > 100 µM
CC1=CC(=O)/C(=C/N2CCNC2=S)C(=O)O1 ... > 100 µM
CC12CCC(C1)C(C)(C)C2OC(=O)c1ccccc1C(=O)O (configuration not stated) ... > 100 µM
CCOC(=O)c1ccc(NC(NC(=O)CC)(C(F)(F)F)C(F)(F)F)cc1 ... > 100 µM

For Cc1ccc(NC(=O)CC(=O)N2N=C(c3ccccc3)C(N=Nc3ccc(S(=O)(=O)CCOS(=O)(=O)O)cc3)C2=O)cc1 (configuration not stated) the compound record lists TGI as > 100 µM

For this compound ( Cc1ccc(Nc2nc(NS(=O)(=O)c3cc(C)c(Cl)cc3S)n[nH]2)cc1 ), measured TGI is > 100 µM

Sample Clc1ccc(-c2nn3c(C45CC6CC(CC(C6)C4)C5)nnc3s2)cc1 ; TGI observed: > 100 µM

For Clc1ccc(-c2cn(-c3ccccc3)c(-c3ccccc3)n2)c(Cl)c1 the compound record lists TGI as > 50 µM

TGI reported for this compound Cc1ccc(CC(=O)Nc2ccc(NC(=O)CNC(=O)/C=C/c3ccc(-c4ccccc4)cc3)cc2C(=O)c2ccccc2)cc1 : 6.32 µM

Per the records, this compound ( C=C1C(=O)O[C@H]2[C@H]1CC/C(COC(=O)C(=O)c1cn(C)c3ccc(OC)cc13)=C\CC[C@@]1(C)O[C@@H]21 ) has TGI equal to 7.56 µM

For CC1CN=C(N(C)C(=O)Nc2ccc(Cl)c(Cl)c2)S1 (configuration not stated) the compound record lists TGI as 29.9 µM

Noted for CN(C)CCCC(=O)Nc1ccc(Cn2nnc3c2C(=O)c2nnn(Cc4ccc(NC(=O)CCCN(C)C)cc4)c2C3=O)cc1 : its TGI reads 2.84 µM

Cc1ccc(C2(c3ccc(C)c(O)c3C)CCN(C)CC2)c(C)c1O yielded TGI of > 100 µM

CC1=C(c2cc(C(=O)Nc3cccc(C(F)(F)F)c3)nc(NC#N)n2)Sc2ccccc2N1 has a reported TGI of > 100 µM

Record Clc1ccc(Nc2nc3ccccc3c3occc23)cc1 , field TGI: 14.1 µM

Lab note: measured TGI of Cc1nc2ccc(NCCN(C)C)c3c(=O)c4cc(O)ccc4n1c23 was 10.5 µM

Origin of measurements: PubChem BioAssay (NCI)
